test system: Fibroblast; experiment: Multiplex assay against human fibroblast; assay type: toxicity, cell-based; conditions: 24 h, 1 µM, compound concentration 1 uM, replicate 1
QUANTITY_MEASURED: Population Healthy Nuclei (%)
Give just the numeric value; % need not be written.

Solved entries (count: 3):
COMPOUND | EXPERIMENTAL_SYSTEM | QUANTITY_MEASURED | OBSERVED_RESULT
Cl.Cl.OCCOCCN1CCN(C(c2ccccc2)c2ccc(Cl)cc2)CC1 (centres undefined) [HYDROXYZINE HYDROCHLORIDE] | Fibroblast | Population Healthy Nuclei (%) | 78
O=c1nc2[nH]c3ccccc3nc-2c(=O)[nH]1 [ALLOXAZINE] | Fibroblast | Population Healthy Nuclei (%) | 69
C=CCN1C[C@H](C(=O)N(CCCN(C)C)C(=O)NCC)C[C@@H]2c3cccc4[nH]cc(c34)C[C@H]21 [CABERGOLINE] | Fibroblast | Population Healthy Nuclei (%) | 74

Now turn to the next compound.
What value of Population Healthy Nuclei (%) has been recorded for this entry: CN1CCN2c3ccccc3Cc3ccccc3C2C1.Cl (centres undefined) [MIANSERIN HYDROCHLORIDE]
55

The values you see were collected from ChEMBL document CHEMBL5058577.
